# System: Streptococcus
# protocol-text: Group A Streptococcus viability loss, dose response, counter-screen for streptokinase expression inhibitor project, luminescence, BacTiterGlo (AID 1915);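 also: potency for reduction of bacterial viability or growth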
# Type: functional, organism-based
Activity calls are given as the source filed them.
test-readout: EC50

* Cc1nc2ccccc2n1/N=C/c1ccc([N+](=O)[O-])s1 | 10.7 µM (active)
* COc1ccc(/C=C2/C(=O)N(c3nc4ccccc4s3)N=C2CSc2ccc(Cl)cc2)cc1 | 3.65 µM (active)
* Oc1c2cnnc-2nc(SCc2c(F)cccc2F)n1-c1ccc(Cl)cc1 | > 150 µM (not active)
* COc1ccc(/C=C/C(=O)NC(=S)NNC(=O)c2ccco2)cc1 | 3.29 µM (active)

###

# assay-target: Heat shock factor protein 1 (Mus musculus, UniProt P38532)
# Sequence (P38532 whole entry): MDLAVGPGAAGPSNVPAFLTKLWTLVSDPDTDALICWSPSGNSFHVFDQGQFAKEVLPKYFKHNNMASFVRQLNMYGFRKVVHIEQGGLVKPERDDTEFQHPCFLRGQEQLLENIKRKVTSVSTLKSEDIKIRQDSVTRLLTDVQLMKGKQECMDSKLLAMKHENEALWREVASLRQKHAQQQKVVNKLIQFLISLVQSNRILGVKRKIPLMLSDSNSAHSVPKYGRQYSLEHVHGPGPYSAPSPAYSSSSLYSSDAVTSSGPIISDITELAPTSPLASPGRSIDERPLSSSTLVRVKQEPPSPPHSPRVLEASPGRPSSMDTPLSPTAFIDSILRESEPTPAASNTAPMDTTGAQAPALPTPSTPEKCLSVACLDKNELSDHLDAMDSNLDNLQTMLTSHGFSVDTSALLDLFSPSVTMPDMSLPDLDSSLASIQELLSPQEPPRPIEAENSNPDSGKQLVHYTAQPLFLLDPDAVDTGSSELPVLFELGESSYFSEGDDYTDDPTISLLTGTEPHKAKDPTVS
# protocol-text: HSF1 potentiators in luciferase reporter cells, confirmation, cell-based, NIH3T3, luminescence, dose retest (AID 435004);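 also: stress induced by proteasome inhibitor MG132 added 30 min after compound; luciferase reporter driven by HSF1 response element in NIH3T3 cells; actives raise luminescence as potentiators of the MG132 stress response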
# Format: functional
The source made the active and inactive calls.
Possible outcomes: active, inactive

- NCCCCCc1nnc(SC/C=C/c2ccccc2)o1: inactive
- Cc1ccc(N2C(=O)SC(N(CC(=O)O)c3ccc(C)cc3)C2=O)cc1 (stereo not drawn): inactive
- O=C(NC(=S)N1CCN(C/C=C/c2ccccc2)CC1)c1ccc(Cl)nc1: inactive
- COc1cc(CNC2CCCC2)cc(OC)c1: inactive
- CC(C)(C)c1ccc(COc2ccsc2C(=O)O)cc1: active
- COc1ccc(/C=N/Nc2cc(C)nc3ccc(Br)cc23)cc1: inactive
- CC(NC(=O)CCCN1C(=O)c2ccccc2C1=O)c1ccc2c(c1)CCCC2 (stereo not drawn): inactive
- CN(C)C(=O)c1ccc(=O)n(Cc2ccc(Cl)cc2Cl)c1: inactive
- Cc1oc(-c2ccccc2Cl)nc1CN1C(=O)CN=C(c2ccccc2)c2ccccc21: inactive
- Fc1ccc(C2NC(S)=NC3=C2N2CCC3CC2)cc1 (stereo not drawn): inactive
- COC(=O)Nc1ccc(S(=O)(=O)N2CCC(C(=O)N3CCCC(C)C3)CC2)cc1 (stereo not drawn): inactive
- COc1ccc(CCNc2oc(-c3ccccc3OC)nc2C#N)cc1: inactive
- COc1cccc(N(CC(=O)N2CCc3ccccc3C2)S(C)(=O)=O)c1: inactive
- O=C(O)c1ccc(N(Cc2ccccc2)S(=O)(=O)c2ccccc2)cc1: inactive
- COc1cc(/C=C/C(=O)OCc2c(C)noc2C)ccc1OC(F)F: inactive
- O=c1c2cc(N3CCOCC3)ccc2[nH]c(=S)n1Cc1ccccn1: inactive
- c1ccc(-c2nc(NCc3cccnc3)c3oc4ccccc4c3n2)cc1: inactive
- Cc1[nH]n(-c2ccccc2)c(=O)c1C(C[N+](=O)[O-])c1ccc(F)cc1 (stereo not drawn): inactive

###

# assay-target: Carboxy-terminal domain RNA polymerase II polypeptide A small phosphatase 1 (Homo sapiens)
# Sequence (Q9GZU7 whole entry, the tested form may be a part): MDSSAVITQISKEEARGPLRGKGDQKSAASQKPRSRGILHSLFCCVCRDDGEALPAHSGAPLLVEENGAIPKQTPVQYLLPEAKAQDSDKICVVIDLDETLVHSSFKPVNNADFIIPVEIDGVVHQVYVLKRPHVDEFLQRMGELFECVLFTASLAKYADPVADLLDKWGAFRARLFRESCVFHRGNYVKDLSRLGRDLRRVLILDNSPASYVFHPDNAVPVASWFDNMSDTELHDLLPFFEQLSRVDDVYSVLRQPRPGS
# protocol-text: inhibitors of CTDSP1, concentration-response testing, biochemical assay, absorbance-based, actives from ultra-high-throughput screening (AID 540297)
# Assay type: functional
Calls of active or inactive are those of the source.
test-readout: IC50

- COc1ccc(NC(=O)CN(C)C(=O)/C=C/c2cn(Cc3ccccc3)nc2-c2cccnc2)cc1: 8.74 µM (active)
- C=C(C)C(=O)Nc1cccc(C2=NOC3(C2)C[C@@H](C(N)=O)N(C(=O)/C(C)=C/C)C3)c1 (some centres not stated): 0.54 µM (active)
- CCOC(=O)C1=C(O)/C(=C\c2ccc(CNC(=O)C(=O)Nc3ccccc3)o2)N=C1C: 8.55 µM (active)
- Cc1ccc(NC(=O)/C=C/c2ccco2)nc1: 11.7 µM (active)
- O=C(COC(=O)c1ccccc1)NCc1ccco1: 11.1 µM (active)
- CCOC(=O)C1=C(C)N=c2s/c(=C\c3ccc(C(=O)O)cc3)c(=O)n2C1c1ccc(OC)cc1OC (configuration not stated): 7.72 µM (active)
- COc1ccc(N2CCN(C(=O)Cc3ccc(S(=O)(=O)N4CCOCC4)s3)CC2)cc1: 6.08 µM (active)

###

# assay-target: UniProtKB P9WHJ3
# protocol-text: Fluorescence Cell-Free Homogeneous Dose Retest to Identify Inhibitors of RecA-Intein Splicing Activity. [Related pubchem assays (depositor defined):AID2097, AID2223, AID489010, AID492950]
# Type: functional
Active and inactive are the calls of the source.
EC50 listing for selected compounds.
test-readout: EC50

* Nc1c(O)cccc1C(=O)O | 5.43 µM (active)
* O=c1c2ccccc2nc2n1CCS2(=O)=O | 12.9 µM (active)
* Cn1nc(-c2ccccn2)nc2c(=O)n(C)c(=O)nc1-2 | 0.0191 µM (active)
* COc1cc(NC(C)CCCN)c2ncccc2c1 (stereo unspecified) [PRIMAQUINE PHOSPHATE] | 1.17 µM (active)
* Cc1n[nH]c2c1C1(CCN(C(=O)OCc3ccccc3)CC1)C(C#N)=C(N)O2 | 1.59 µM (active)
* O=[N+]([O-])c1ccc(Oc2cccc(Br)c2)c2ccncc12 | 1.17 µM (active)

###

# assay-target: UniProt P33261
# Sequence (P33261 whole entry): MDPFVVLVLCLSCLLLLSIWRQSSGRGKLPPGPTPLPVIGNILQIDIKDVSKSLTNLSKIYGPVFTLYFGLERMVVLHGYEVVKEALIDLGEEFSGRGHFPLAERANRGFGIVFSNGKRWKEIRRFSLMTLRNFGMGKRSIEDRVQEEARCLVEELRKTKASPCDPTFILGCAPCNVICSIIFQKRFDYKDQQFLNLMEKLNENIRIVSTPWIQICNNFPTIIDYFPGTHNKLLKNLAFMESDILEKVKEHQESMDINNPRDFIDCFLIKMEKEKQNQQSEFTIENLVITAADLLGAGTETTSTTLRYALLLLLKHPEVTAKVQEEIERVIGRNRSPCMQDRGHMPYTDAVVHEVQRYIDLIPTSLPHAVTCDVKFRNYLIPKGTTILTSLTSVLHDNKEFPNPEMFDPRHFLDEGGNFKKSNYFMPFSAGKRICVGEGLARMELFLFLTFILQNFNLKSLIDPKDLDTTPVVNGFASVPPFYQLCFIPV
# protocol-text: Cytochrome panel assay with activity outcomes. Panel member name: p450-cyp2c19 Compounds with AC50 equal or less than 10 uM are considered active
# Format: functional
# test-conditions: read-out: AC50
AC50 listing for selected molecules.
test-readout: AC50

* CCCCCCC/C=C\CCCCCCCCC(=O)O | 39.8 µM (inconclusive)
* COC(=O)C(Cc1c[nH]c2ccccc12)NC(=O)C(C)C (centres undefined) | 22.4 µM (inconclusive)
* CCCCCCCCCCn1c2c(c(=N)c3c1CCC3)CCC2 | 28.2 µM (inconclusive)
* COc1ccc(-c2c[n+]3c4n2CCCCC4=C(c2ccccc2)C3)cc1 | 3.55 µM (inconclusive)
* CC(=O)OCc1nc2ccccc2s1 | 25.1 µM (inconclusive)
* CN1c2ccccc2Oc2c(c(=O)n(C)c(=O)n2C)C1c1cccc([N+](=O)[O-])c1 (centres undefined) | 14.1 µM (inconclusive)
* CC(=O)N(/N=C/c1cccc(C)c1)c1nc(-c2ccc(Br)cc2)cs1 | 0.0708 µM (inconclusive)
* CCC/C=C(\CCC)C(NC(=O)C(C)(C)C)c1ccc(C(=O)OC)cc1 (centres undefined) | 39.8 µM (inconclusive)
* Cc1c2cnccc2c(C)c2c1c1ccccc1n2CCOC(=O)c1ccccc1 | 0.794 µM (inconclusive)

###

EC50 listing for selected molecules.
# protocol-text: cytotoxicity toward NIH3T3 fibroblasts, dose response, counter-screen, cell-based, ATP luminescence, mouse fibroblasts (AID 2010);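 also: cells exposed to compound for about 90 hours before reading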
# Format: functional
Calls of active or inactive are those of the source.
test-readout: EC50

* Cc1c(C(=O)NCC2COc3ccccc3O2)oc2ccc(S(=O)(=O)N3CC(C)CC(C)C3)cc12 (stereo not given) | > 60 µM (not active)
* CCOc1cc(CNCCCN2CCOCC2)cc(Br)c1OCc1ccccc1Cl | 12 µM (active)
* c1ccc(-c2nc(NCc3cccnc3)c3oc4ccccc4c3n2)cc1 | > 60 µM (not active)
* CCN(Cc1ccc(O)cc1)CC1CCCN(CCc2cccc(F)c2)C1 (stereo not given) | 40.3 µM (active)
* C#CCn1/c(=N/C(=O)c2ccc(S(=O)(=O)N3CCCc4ccccc43)cc2)sc2cc(S(N)(=O)=O)ccc21 | > 60 µM (not active)
* O=C1C(=O)c2c(C(=O)c3ccccc3)coc2-c2ccccc21 | 9.47 µM (active)
* Nc1ccc2nc(N3CCOCC3)sc2c1 | 5.16 µM (active)
* CCc1c(C#N)c(SCCC(=O)Nc2ccc(F)cc2)nc2c1C(=O)CC(C)(C)C2 | > 60 µM (not active)
* COc1cc(NC(=O)CCN2CCN(C/C=C/c3ccccc3)CC2)cc(OC)c1 | > 60 µM (not active)
* CC(=O)NCCC(=O)Nc1cc(S(=O)(=O)N2CCCCC2)ccc1N1CCN(C)CC1 | > 30 µM (not active)
